Provide the recorded melting point for the entries that follow.

Q: # melting point lookup, item O=C(O)CCCCCCCCCCCCCCC(=O)ON1C(=O)CCC1=O
Result: 118 to 121 °C

Q: Continue with CC(C)N(c1cccc2cc(C(N)=S)[nH]c12)S(=O)(=O)c1cccs1
Result: 204 to 205 °C

Q: Continue with CN1CC(=O)Nc2ccc(C(F)(F)F)cc2C1=O
Result: 203 to 206 °C

Q: Continue with COc1ccc(CN2CCNCC2)cc1
Result: 99 to 101 °C

Q: Continue with COc1ccc(C2(CCC(=O)O)SCCCS2)cc1OC
Result: 134 to 135 °C

Q: Continue with Cc1nc(-c2ccc(NS(=O)(=O)c3sc4ccc(F)cc4c3C)c(S(C)(=O)=O)c2)cs1
Result: 217 to 220 °C

Q: Continue with CCc1cc(OCc2ccc(-c3ccccc3-c3nnn(C(c4ccccc4)(c4ccccc4)c4ccccc4)n3)cc2)c2c(n1)CCN(C)C2
Result: 143 to 144 °C

Q: Continue with O=C(CNC(=O)OCc1ccc([N+](=O)[O-])cc1)Nc1ccc(C(=O)OCCl)cc1
Result: 163 to 165 °C

Q: Continue with COc1ccc2nc(NC(=O)C(CC3CCCC3)c3ccc(S(=O)(=O)NCc4ccco4)cc3)sc2n1 (centres undefined)
Result: 244 to 247 °C
